Listed below: composite z-score values for each entry.
Test system: glycogen synthase kinase-3 (GSK3A per assay name; protocol says GSK3B)
protocolDetails: GSK3 binders on small-molecule microarrays, primary screen, biochemical, small-molecule microarray, 635 nm fluorescence, GSK3A (AID 1103); note: the record names both GSK3A and GSK3B
details: small-molecule microarray binding, fluorescence 635 nm; higher = more signal
Give the figure only, with no unit attached.

Record COCCCNC(=O)[C@@]1(c2ccc([N+](=O)[O-])cc2)CC(=O)N(C2CCCCC2)[C@@H]1c1ccc(CO)cc1I : what is its composite z-score with glycogen synthase kinase-3 (GSK3A per assay name; protocol says GSK3B)? 1.16

Record C=CCOC(=O)[C@H]1[C@@H]2C(=O)O[C@@H](c3ccccc3)[C@@H](c3ccccc3)N2[C@@H](c2ccc(OCCOC(=O)[C@H]3C[C@H]4C(=O)NCC(=O)N4[C@H]3c3ccc(O)cc3)cc2)[C@]12C(=O)Nc1ccccc12 : what is its composite z-score with glycogen synthase kinase-3 (GSK3A per assay name; protocol says GSK3B)? 1.3

Record Cc1ccc(S[C@]2(C(=O)NCc3ccccc3)CC(=O)N(Cc3ccccc3Cl)[C@@H]2c2ccc(CO)cc2)cc1 : what is its composite z-score with glycogen synthase kinase-3 (GSK3A per assay name; protocol says GSK3B)? 0.165

Record [N-]=[N+]=NCc1ccccc1C[C@@]1(C(=O)NCCN2CCOCC2)N=C(c2ccc(OCCCO)cc2)O[C@@H]1c1ccccc1 : what is its composite z-score with glycogen synthase kinase-3 (GSK3A per assay name; protocol says GSK3B)? -0.0659

Record COC(=O)[C@@]1(Cc2ccc(OC)cc2)[C@H]2c3cc(C(=O)N(C)C)n(Cc4c(CO)[nH]cc(C)c4=O)c3C[C@H]2CN1C(=O)c1ccccc1 : what is its composite z-score with glycogen synthase kinase-3 (GSK3A per assay name; protocol says GSK3B)? 0.664

Record C=CCNC(=O)[C@H]1[C@@H]2C(=O)O[C@@H](c3ccccc3)[C@@H](c3ccccc3)N2[C@@H](c2ccc(O)cc2)[C@]12C(=O)Nc1ccc(C#CCC(C(=O)OC)C(=O)OC)cc12 : what is its composite z-score with glycogen synthase kinase-3 (GSK3A per assay name; protocol says GSK3B)? 1.04

----------
Test system: wheat germ agglutinin (Triticum aestivum), Alexa647-labelled
protocolDetails: wheat germ agglutinin binders on compound microarrays, profiling panel, artefact control for SMM control-protein annotation, biochemical, small-molecule microarray, 635/667 nm fluorescence (AID 1140);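 note: score merges 667 nm feature emission with signal to noise over triplicate slides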
details: WGA-A647 binding, 635 nm fluorescence, higher = more signal
Mark class 1 for reported composite z-score of 0.8 or greater; mark class 0 for anything smaller.

Consider the worked cases shown below.
{"columns": ["compound", "tgt", "class"],
 "data": [
  ["COc1ccc(CCNC(=O)[C@@H]2c3ccccc3C(=O)N(Cc3cc(F)cc(C(F)(F)F)c3)[C@H]2c2ccc(CO)cc2)cc1", "wheat germ agglutinin (Triticum aestivum), Alexa647-labelled", "class 1"],
  ["CC[C@@H](O[Si](C#C[Si](C(C)C)(C(C)C)C(C)C)(C(C)C)C(C)C)c1cn([C@H](CO)Cc2ccccc2)nn1", "wheat germ agglutinin (Triticum aestivum), Alexa647-labelled", "class 1"],
  ["CCOC(=O)C[C@H]1[C@H](OC(=O)c2ccc(-c3ccccc3)cc2)[C@@H](NC(=O)C2CCCCC2)c2cc(OCCCO)ccc2N1C(=O)Cc1ccc(OC)cc1", "wheat germ agglutinin (Triticum aestivum), Alexa647-labelled", "class 0"],
  ["COc1cccc(C)c1NC(=O)O[C@H]1[C@H](OC(=O)Nc2ccccc2)[C@@H](OC(=O)Nc2ccccc2)[C@@H](OC)O[C@@H]1CO", "wheat germ agglutinin (Triticum aestivum), Alexa647-labelled", "class 1"],
  ["CC[C@@H](O[Si](C#C[Si](C(C)C)(C(C)C)C(C)C)(C(C)C)C(C)C)c1cn(Cc2cccc(Cl)c2)nn1", "wheat germ agglutinin (Triticum aestivum), Alexa647-labelled", "class 0"]
]}

// inclusive: composite z-score at least 0.8? input: CC(C)C[C@@H]1NC(=O)[C@@H]2C[C@H](C(=O)NCCCCCNC(=O)CS)[C@H](c3ccc(O)cc3)N2C1=O class 0

// inclusive: composite z-score at least 0.8? input: COC(=O)c1ccc(OC)c(/C=C\CC(OC(=O)c2ccncc2)c2ccccc2)c1 (stereo not drawn) class 1
